Entries and their measured chromatographic logD follow.
# experimental protocol: CHI Log D procedure
# Assay type: physicochemical
# details: pH 7.4, CHI Log D
Hey, just send me the number, nothing else.

Please review the entries below; each comes with its answer.
Exam item: Consider the molecule shown here: CC(=O)N[C@@H](Cc1ccccc1)C(=O)N[C@@H](CC(=O)O)C(=O)N[C@@H](C)C(=O)N[C@]1(C)CCCCCCC=CCOC(=O)N2CC[C@@](C(=O)N[C@@H](Cc3ccccc3)C(=O)N[C@@H](Cc3c[nH]c4ccccc34)C(=O)N[C@@H](CCC(N)=O)C(N)=O)(C2)NC(=O)[C@H](C(C)C)NC(=O)[C@H](Cc2ccccc2)NC(=O)[C@H](C)NC(=O)[C@H](C)NC(=O)[C@@](C)(Cc2ccccc2)NC(=O)[C@H](CC(=O)O)NC1=O (single isomer, unassigned) What is its recorded chromatographic logD?
Marked response: 2.16

Exam item: Consider the molecule shown here: CC(=O)N1CCC[C@]12CC=CCCCC1(CCCC=CCCCCCC[C@@](C)(C(=O)N[C@@H](Cc3ccccc3)C(=O)N[C@@H](Cc3ccc4ccccc4n3)C(=O)N[C@@H](CCC(N)=O)C(N)=O)NC(=O)[C@H](C(C)C)NC(=O)[C@H](Cc3ccccc3)NC(=O)[C@H](C)NC(=O)[C@H](C)NC(=O)[C@H](CCC(=O)O)NC(=O)[C@H](CC(=O)O)NC1=O)NC(=O)[C@H](C)NC(=O)[C@H](CC(=O)O)NC2=O (stereo partly drawn) What is its recorded chromatographic logD?
Marked response: 2.07

Further cases:
Exam item: Consider the molecule shown here: CC(=O)N[C@@H](Cc1ccccc1)C(=O)N[C@@H](CC(=O)O)C(=O)N[C@@H](C)C(=O)N[C@]1(C)CCCCCCC=CCOC(=O)N2CC[C@@](C(=O)N[C@@H](Cc3ccccc3)C(=O)N[C@@H](Cc3c[nH]c4ccccc34)C(=O)N[C@@H](CCC(N)=O)C(N)=O)(C2)NC(=O)[C@H](C(C)C)NC(=O)[C@H](Cc2ccccc2)NC(=O)[C@H](CCC(=O)O)NC(=O)[C@H](C)NC(=O)[C@H](CC(=O)O)NC(=O)[C@H](CC(=O)O)NC1=O (single isomer, unassigned) What is its recorded chromatographic logD?
Marked response: 0.92

Exam item: Consider the molecule shown here: CC(=O)N[C@@H](Cc1ccccc1)C(=O)N[C@@H](CC(=O)O)C(=O)N[C@@H](C)C(=O)N[C@]1(C)CCCCCCC=CCOC(=O)N2CC[C@@](C(=O)N[C@@H](Cc3ccc(O)cc3)C(=O)N[C@@H](Cc3c[nH]c4ccccc34)C(=O)N[C@@H](CCC(N)=O)C(N)=O)(C2)NC(=O)[C@H](C(C)C)NC(=O)[C@H](Cc2ccccc2)NC(=O)[C@H](C)NC(=O)[C@H](C)NC(=O)[C@H](CC(=O)O)NC(=O)[C@H](CC(=O)O)NC1=O (single isomer, unassigned) What is its recorded chromatographic logD?
Marked response: 0.981
